ASSAYED_SYSTEM: GST-Rok-C97-191 (Bacillus subtilis subsp. subtilis str. …, UniProt O34857 97-191)
Sequence: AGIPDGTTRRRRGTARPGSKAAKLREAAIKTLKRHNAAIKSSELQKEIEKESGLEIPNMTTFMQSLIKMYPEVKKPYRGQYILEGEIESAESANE
PROTOCOL_DESCRIPTION: protein binding microarray; Rok is a gene silencer of Bacillus subtilis; high values mean tight binding
CONDITION_DESCRIPTION: protein: recombinant; tags: GST (pTH5325, pDEST15-Magic modified); dsDNA, one strand shown
Whole data set: some 33,000 sequences, median “e-score” near -0.038, cut for the highest 2% near 0.33. For the sample, the highest values were picked, then their nearest neighbours and some sequences at random.
Please assign Criterion not met whenever binding signal is at or above 0.2 E-score, and Criterion met whenever it is below.

Please check: binding signal for "ATACATAT" , strictly under 0.2 E-score or not?
Criterion not met

Does the reported binding signal of "CATAGAAA" stay below 0.2 E-score?
Criterion met

Please let me know if "AATAGAAT" shows binding signal below 0.2 E-score.
Criterion not met

Does the reported binding signal of "GGAATCTA" stay below 0.2 E-score?
Criterion not met

# check: binding signal < 0.2 E-score for "ATATTCTA"
Criterion not met

Is 0.2 E-score strictly greater than the sequence's reported binding signal? sequence: "CGTCGCTC"
Criterion met

hey, is binding signal for "AAATCTTC" lower than 0.2 E-score or not?
Criterion met

binding signal under 0.2 E-score? Item: "GAAAGCTC"
Criterion met

binding signal under 0.2 E-score? Item: "GATAGAAA"
Criterion not met

binding signal strictly < 0.2 E-score for this sequence? "CGTTATCA"
Criterion met

Bench note: check whether "AAATCTAG" shows binding signal below 0.2 E-score
Criterion not met

Lab note: binding signal threshold 0.2 E-score. Does this sequence come in strictly under it? "TTACATAA"
Criterion not met

Threshold test, binding signal < 0.2 E-score: "GTAATCTA"
Criterion not met

I'd appreciate it if you could check whether "GGATTCTA" has binding signal smaller than 0.2 E-score.
Criterion not met

I'd appreciate it if you could check whether "ATTCCGGC" has binding signal smaller than 0.2 E-score.
Criterion met

Quick check: does "ACTCTACA" have binding signal under 0.2 E-score?
Criterion met

Is the reported binding signal for "ATACATAC" strictly below 0.2 E-score?
Criterion not met

Problem: For the sequence "CTAATTTC" , is binding signal under 0.2 E-score?
Criterion not met

Strictly below 0.2 E-score: is that where binding signal of "CGAATCTA" sits?
Criterion not met

Does the reported binding signal of "TATAGACA" stay below 0.2 E-score?
Criterion met

is_below(binding signal, 0.2 E-score) for "GTCCTAGA" ?
Criterion met

Does this sequence meet the criterion binding signal < 0.2 E-score? "AAGCTACC"
Criterion not met

Lab note: binding signal threshold 0.2 E-score. Does this sequence come in strictly under it? "ATAATTCA"
Criterion not met

Input "CGTCTGAA" ; condition: binding signal strictly below 0.2 E-score. Does it hold?
Criterion met

Hi there! Is binding signal for "GCAATTTA" below 0.2 E-score, do you know?
Criterion not met

binding signal under 0.2 E-score? Item: "CATCTACA"
Criterion met

Check if binding signal falls below 0.2 E-score for "ATATAGAT" .
Criterion not met

Identify whether the sequence "CAGCTACA" records binding signal below 0.2 E-score.
Criterion met

Please check: binding signal for "CTAATTTA" , strictly under 0.2 E-score or not?
Criterion not met

binding signal strictly < 0.2 E-score for this sequence? "ACTCACTG"
Criterion met

Lab log: compare recorded binding signal with 0.2 E-score; is it strictly lower for "ACATCTAG" ?
Criterion not met

Quick check: binding signal of "ACTATTAC" under 0.2 E-score?
Criterion not met

Below 0.2 E-score on binding signal? Entry "AAAATCTA"
Criterion not met

Strictly below 0.2 E-score in binding signal? "ATGGCGCA"
Criterion met

Problem: For the sequence "GCTGATTA" , is binding signal under 0.2 E-score?
Criterion met

Confirm or reject: binding signal of "TATAGAAA" lies strictly below 0.2 E-score
Criterion not met

Does the reported binding signal of the following sequence sit strictly below 0.2 E-score? "AGCTAGAT"
Criterion met

Given the entry "CTAGTAGC" , would its reported binding signal be below 0.2 E-score?
Criterion not met

Please let me know if "ACGTGCCT" shows binding signal below 0.2 E-score.
Criterion met

Bench note: check whether "AATAGAAC" shows binding signal below 0.2 E-score
Criterion met

Would you kindly verify if binding signal of "ACAACCGG" is strictly less than 0.2 E-score?
Criterion met

API: query returns whether the sequence falls strictly under 0.2 E-score in binding signal. Query: "GCGCTCTA"
Criterion met

Take the sequence "AGATTCTA" and say whether its binding signal is less than 0.2 E-score.
Criterion not met

Problem: For the sequence "TATCTACA" , is binding signal under 0.2 E-score?
Criterion not met

Confirm or reject: binding signal of "ATATAGAC" lies strictly below 0.2 E-score
Criterion met

Please determine if "GAAATCTA" is below 0.2 E-score in terms of binding signal.
Criterion not met

Strictly below 0.2 E-score: is that where binding signal of "AAAATCTC" sits?
Criterion not met

Given the entry "CCAGTAGA" , would its reported binding signal be below 0.2 E-score?
Criterion met

API: query returns whether the sequence falls strictly under 0.2 E-score in binding signal. Query: "AAACATAT"
Criterion not met

Please state whether binding signal is below 0.2 E-score for "ACAGTAGA"
Criterion not met

Decide: binding signal of "AATTCACG" strictly below 0.2 E-score?
Criterion met

Does this sequence meet the criterion binding signal < 0.2 E-score? "GATCTACA"
Criterion not met

Hello, is binding signal of the following sequence strictly smaller than 0.2 E-score? "AAAGTAGG"
Criterion not met

Given "ACGTTTTC" , is recorded binding signal strictly lower than 0.2 E-score?
Criterion met

Say whether its binding signal is strictly beneath 0.2 E-score. Entry: "AAATCTGT"
Criterion met

Please state whether binding signal is below 0.2 E-score for "GATAGACA"
Criterion met

Given the entry "AAGCTACG" , would its reported binding signal be below 0.2 E-score?
Criterion met

Say whether its binding signal is strictly beneath 0.2 E-score. Entry: "GTCCCTGA"
Criterion met

Is the reported binding signal for "ATAATTTA" strictly below 0.2 E-score?
Criterion not met

Regarding "GGAGTAGA" , kindly confirm whether its binding signal is beneath 0.2 E-score.
Criterion met

Say whether its binding signal is strictly beneath 0.2 E-score. Entry: "ATATTCTC"
Criterion not met

Is the reported binding signal for "CTATAGAA" strictly below 0.2 E-score?
Criterion not met

Criterion: binding signal strictly below 0.2 E-score. Is it met by "AGATTCTC" ?
Criterion met

Dear colleague, could you confirm whether binding signal of "AATAGAAA" falls below 0.2 E-score? Thanks.
Criterion not met

Below 0.2 E-score on binding signal? Entry "GTACATAA"
Criterion not met

Please state whether binding signal is below 0.2 E-score for "GAAATCTC"
Criterion not met

In the record for "GGCTAGAA" , is binding signal less than 0.2 E-score?
Criterion met

Is the reported binding signal for "CACTAGAA" strictly below 0.2 E-score?
Criterion not met

Dear colleague, could you confirm whether binding signal of "AGAATTTG" falls below 0.2 E-score? Thanks.
Criterion met

Confirm or reject: binding signal of "CTATTCTA" lies strictly below 0.2 E-score
Criterion not met

Dear colleague, could you confirm whether binding signal of "ACGTAAGT" falls below 0.2 E-score? Thanks.
Criterion met

Consider the sequence "AACTAGAA" . Is its binding signal strictly less than 0.2 E-score?
Criterion not met

Decide: binding signal of "ACGGACCA" strictly below 0.2 E-score?
Criterion met

Hello, is binding signal of the following sequence strictly smaller than 0.2 E-score? "ACTATTAA"
Criterion not met

Input "CAAGTAGA" ; condition: binding signal strictly below 0.2 E-score. Does it hold?
Criterion not met
